These measurements were taken from patent EP0550016A1.

Here the recorded MIC is given for each entry.
System: Staphylococcus aureus 707 E
Assay: In vitro anti-bacterial activity test (MIC, two-fold dilution method), Table 2 strains
Format: cell-based
Details: Table 2 strain 15: Staphylococcus aureus 707 E; read-out: MIC

[[record]]
molecule = "CC1COc2c(N3CCN(C)CC3)c(F)cc3c(=O)c(C(=O)O)cn1c23 (stereo not shown) [Ofloxacin, ofloxacin, reference compound]"
measured_quantity = "MIC"
measured_value = "0.781 µg/mL"


Determine from records and report MIC for CNC1CC12CCN(c1c(F)cc3c(=O)c(C(=O)O)cn(C4CC4)c3c1Cl)C2 (stereo not shown) 0.098 µg/mL

Determine from records and report MIC for CNC1CC12CCN(c1c(F)cc3c(=O)c(C(=O)O)cn(C4CC4)c3c1F)C2 (stereo not shown) 0.195 µg/mL

Determine from records and report MIC for Nc1c(F)c(N2CCC3(CC3N)C2)c(F)c2c1c(=O)c(C(=O)O)cn2C1CC1 (stereo not shown) 0.025 µg/mL
